assay: method code SF, from DOI: 10.1039/p29920001643
Please provide measured logP for the entries that follow.

Look up logP: Cc1no[n+]([O-])c1S(=O)c1ccccc1 (configuration not stated)
1.75

Also need Nc1nonc1NC(=O)c1ccccc1 , thanks.
1.41

Also need O=[N+]([O-])c1nonc1-c1ccccc1 , thanks.
2.63

Also need Cc1no[n+]([O-])c1N , thanks.
-0.32

Also need [O-][n+]1onc(Cl)c1-c1ccccc1 , thanks.
2.7

Also need COC(=O)c1nonc1C , thanks.
0.94

Also need CC(=O)Nc1nonc1N , thanks.
-0.23

Also need Cc1no[n+]([O-])c1C(N)=O , thanks.
0.36

Also need Cc1nonc1N , thanks.
0.09

Also need Nc1no[n+]([O-])c1-c1ccccc1 , thanks.
1.47

Also need Nc1c(-c2ccccc2)no[n+]1[O-] , thanks.
1.42

Also need Cc1nonc1[N+](=O)[O-] , thanks.
0.97

----------
assay: method code SF, from DOI: 10.1039/p29920001643
Please provide measured logP for the entries that follow.
Form rule: numeric answer, no unit written next to it.

Look up logP: OCc1nonc1-c1ccccc1
1.92

Also need Cc1c(N)no[n+]1[O-] , thanks.
-0.17

Also need Cc1c(S(=O)(=O)c2ccccc2)no[n+]1[O-] , thanks.
2.03

Also need Cc1nonc1C , thanks.
0.71

Also need Cc1nonc1S(=O)(=O)c1ccccc1 , thanks.
2.36

Also need [O-][n+]1onc(-c2ccccc2)c1-c1ccccc1 , thanks.
3.64

Also need Cc1no[n+]([O-])c1Cc1ccccc1 , thanks.
2.22

Also need Clc1nonc1-c1ccccc1 , thanks.
3.2

Also need Nc1nonc1-c1ccccc1 , thanks.
1.81

Also need Cc1nonc1Sc1ccccc1 , thanks.
2.92

Also need Cc1no[n+]([O-])c1-c1ccccc1 , thanks.
2.16

Also need Cc1nonc1Cc1ccc([N+](=O)[O-])cc1 , thanks.
2.21

Also need O=Cc1no[n+]([O-])c1-c1ccccc1 , thanks.
2.61

Also need CCNc1nonc1N , thanks.
0.51

Also need [O-][n+]1onc(CO)c1-c1ccccc1 , thanks.
1.64

Also need Cc1c(S(=O)c2ccccc2)no[n+]1[O-] (stereo not drawn) , thanks.
1.5

Also need O=Cc1c(-c2ccccc2)no[n+]1[O-] , thanks.
2.92

Also need CC(=O)Nc1nonc1C , thanks.
0.17

Also need c1ccc2nonc2c1 , thanks.
1.69

Also need [O-][n+]1onc(Cc2ccccc2)c1Cc1ccccc1 , thanks.
3.65

Also need Cc1nsnc1C , thanks.
1.28

Also need Cc1c(Cc2ccccc2)no[n+]1[O-] , thanks.
2.08

Also need Cc1no[n+]([O-])c1Cl , thanks.
0.9

Also need Cc1no[n+]([O-])c1C , thanks.
0.23

Also need CNC(=O)Nc1nonc1C , thanks.
0.3

Also need Cc1c(C(N)=O)no[n+]1[O-] , thanks.
0.03

Also need [O-][n+]1onc(-c2ccccc2)c1CO , thanks.
1.77

Also need Cc1no[n+]([O-])c1C=O , thanks.
1.29

Also need [O-][n+]1onc2ccccc21 , thanks.
1.43

Also need COC(=O)c1no[n+]([O-])c1C , thanks.
0.56

Also need CNC(=O)c1nonc1C , thanks.
0.56

Also need COC(=O)Nc1nonc1C , thanks.
0.42

Also need c1ccc2nsnc2c1 , thanks.
1.98

----------
experiment: method code SF, from DOI: 10.1039/p29920001643
Please provide measured logP for the entries that follow.
Form rule: numeric answer, no unit written next to it.

Look up logP: CC(=O)c1c(C)no[n+]1[O-]
0.8

Also need CCCc1nonc1C , thanks.
1.71

Also need Cc1c(Cl)no[n+]1[O-] , thanks.
1.02

Also need Cc1c(C=O)no[n+]1[O-] , thanks.
1.02

Also need CC(=O)c1no[n+]([O-])c1C , thanks.
0.98

Also need CCc1nonc1C , thanks.
1.18

Also need c1cnon1 , thanks.
0.16

Also need Cc1nonc1C(N)=O , thanks.
0.31

Also need Cc1nonc1S(=O)c1ccccc1 (stereo unspecified) , thanks.
1.76

Also need Cc1nonc1-c1ccccc1 , thanks.
2.59

Also need COC(=O)c1c(C)no[n+]1[O-] , thanks.
0.69

Also need Cc1no[n+]([O-])c1Sc1ccccc1 , thanks.
2.74

Also need Cc1c(-c2ccccc2)no[n+]1[O-] , thanks.
2.17

Also need c1ccc(-c2nonc2-c2ccccc2)cc1 , thanks.
3.83

Also need CCS(=O)(=O)c1no[n+]([O-])c1C , thanks.
0.65

Also need Nc1nonc1N , thanks.
-0.49
